Entry source: patent US20150148311A1

Hi there, I'd appreciate the recorded EC50 for every entry that follows.
Biological target: endogenously expressed TGR5 in NCI H716 (Homo sapiens, UniProt Q8TDU6)
Construct: human caecum carcinoma cell line NCI-H716 which endogenously expresses human TGR5; endogenous in cells; host or cells: NCI-H716
Sequence (Q8TDU6 whole entry): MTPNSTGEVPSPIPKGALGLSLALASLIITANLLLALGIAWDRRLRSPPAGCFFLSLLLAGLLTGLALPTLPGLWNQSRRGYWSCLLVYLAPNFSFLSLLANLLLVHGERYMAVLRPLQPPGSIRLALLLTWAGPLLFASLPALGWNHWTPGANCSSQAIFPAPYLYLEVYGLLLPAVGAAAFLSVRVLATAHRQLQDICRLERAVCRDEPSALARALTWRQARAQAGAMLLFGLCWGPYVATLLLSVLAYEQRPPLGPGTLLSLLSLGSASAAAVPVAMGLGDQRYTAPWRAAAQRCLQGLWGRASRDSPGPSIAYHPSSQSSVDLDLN
Experiment: Cell-based TGR5 assay, NCI-H716 cells endogenously expressing human TGR5, cAMP by HTRF
Details: 30 min at 37 C, 22 nM to 50 μM, read-out: pEC50 endogenously expressed TGR5 in NCI H716 (converted)

The compound listed as CN(C[C@H](O)[C@@H](O)[C@H](O)[C@H](O)CO)C(=O)CCc1cc(Cl)c(CN2CCC[C@H]2C(=O)N2CCN(C3CC3)c3ccccc32)cc1Cl [Example 48] has a reported EC50 of 1.26 to 50.1 µM

The compound listed as O=C(O)CCc1cc(Cl)c(CNC2(C(=O)N3CCN(C4CC4)c4ccccc43)CC2)cc1Cl [Example 83] has a reported EC50 of 1.26 to 50.1 µM

The compound listed as O=C(N1CCCc2cccnc21)C1(OCc2cc(Cl)ccc2Cl)CC1 [Example 85] has a reported EC50 of 1.26 to 50.1 µM

The compound listed as CN(C[C@H](O)[C@@H](O)[C@H](O)[C@H](O)CO)C(=O)NCCCc1ccc(Cl)c(CN2CSC[C@H]2C(=O)N2CCN(C3CC3)c3ccccc32)c1 [Example 217] has a reported EC50 of 1.26 to 50.1 µM

The compound listed as CN(C[C@H](O)[C@@H](O)[C@H](O)[C@H](O)CO)C(=O)NCCCc1ccc(Cl)c(CNC2(C(=O)N3CCN(C4CC4)c4ccccc43)CC2)c1 [Example 69] has a reported EC50 of 1.26 to 50.1 µM

The compound listed as O=C([C@@H]1CCCN1S(=O)(=O)c1cc(Cl)ccc1Cl)N1CCN(C2CC2)c2ccccc21 [Example 18] has a reported EC50 of 1.26 to 50.1 µM

The compound listed as O=C(N1CCN(C2CC2)c2ccccc21)C1(OCc2cc(Cl)ccc2Cl)CC1 [Example 9] has a reported EC50 of 0.126 to 1 µM

The compound listed as O=C(N1CCN(C2CC2)c2ccccc21)C1(OCc2cc(Cl)cc(OC(F)(F)F)c2)CC1 [Example 248] has a reported EC50 of 1.26 to 50.1 µM

The compound listed as CC(c1cc(Cl)ccc1Cl)N1CCC[C@H]1C(=O)N1CCN(C2CC2)c2ccccc21 (single isomer, unassigned) [Example 67] has a reported EC50 of 1.26 to 50.1 µM

The compound listed as O=C([C@@H]1CCCN1Cc1cc(Cl)ccc1C(F)(F)F)N1CCN(C2CC2)c2ccccc21 [Example 46] has a reported EC50 of 0.126 to 1 µM

The compound listed as O=C([C@@H]1C2CC2CN1Cc1cc(Cl)ccc1Cl)N1CCN(C2CC2)c2ccccc21 (stereo partly shown) [Example 24] has a reported EC50 of 1.26 to 50.1 µM

The compound listed as NCCCc1ccc(Cl)c(CNC2(C(=O)N3CCN(C4CC4)c4ccccc43)CC2)c1 [Example 68] has a reported EC50 of 1.26 to 50.1 µM

The compound listed as O=C(CCc1cc(Cl)c(OCC2(C(=O)N3CCN(C4CC4)c4ccccc43)CC2)cc1Cl)NC[C@H](O)[C@@H](O)[C@H](O)[C@H](O)CO [Example 75] has a reported EC50 of 0.126 to 1 µM

The compound listed as O=C(N1CCN(C2CC2)c2ccccc21)C1(CSc2cc(Cl)ccc2Cl)CC1 [Example 180] has a reported EC50 of 0.126 to 1 µM

The compound listed as NCCCc1cc(Cl)c(CNC2(C(=O)N3CCN(C4CC4)c4ccccc43)CC2)cc1Cl [Example 92] has a reported EC50 of 1.26 to 50.1 µM

The compound listed as O=C(C1=C(Oc2cc(Cl)ccc2Cl)CCCC1)N1CCN(C2CC2)c2ccccc21 [Example 29] has a reported EC50 of 0.126 to 1 µM

The compound listed as CN(C[C@H](O)[C@@H](O)[C@H](O)[C@H](O)CO)C(=O)CCc1cc(Cl)c(CNC2(C(=O)N3CCN(C4CC4)c4ccccc43)CC2)cc1Cl [Example 91] has a reported EC50 of 0.126 to 1 µM

The compound listed as O=C([C@@H]1CCCN1Cc1cc(C(F)(F)F)ccc1Cl)N1CCN(C2CC2)c2ccccc21 [Example 84] has a reported EC50 of 0.126 to 1 µM

The compound listed as CN(C[C@H](O)[C@@H](O)[C@H](O)[C@H](O)CO)C(=O)NCCOc1cc(Cl)c(CN2CSC[C@H]2C(=O)N2CCN(C3CC3)c3ccccc32)cc1Cl [Example 184] has a reported EC50 of 0.126 to 1 µM

The compound listed as CC(C)N1CC(OCc2cc(Cl)ccc2Cl)(C(=O)N2CCN(C3CC3)c3ccccc32)C1 [Example 53] has a reported EC50 of 1.26 to 50.1 µM

The compound listed as O=C(c1cccn1Cc1cc(Cl)ccc1Cl)N1CCN(C2CC2)c2ccccc21 [Example 61] has a reported EC50 of 0.126 to 1 µM

The compound listed as CN(C[C@H](O)[C@@H](O)[C@H](O)[C@H](O)CO)C(=O)CCc1ccc(Cl)c(CNC2(C(=O)N3CCN(C4CC4)c4ccccc43)CC2)c1 [Example 60] has a reported EC50 of 0.126 to 1 µM
